As shown below, each of these compounds has a reported solubility value.
# method.description: physchem
# test.parameters: pH 9, aqueous with cosolvent or surfactant or cyclodextrin, kinetic from dmso stock

compound	recorded.value
O=C1c2c(O)cccc2Cc2cccc(O)c21 [Compound 6A45]	> 10 µM
O=C1c2ccc(O)c(O)c2C(=O)c2c(O)ccc(O)c21 [Compound 6A61]	> 10 µM
Oc1ccc2cc3ccc(O)cc3c(O)c2c1 [Compound 6A60]	> 10 µM
COc1cc(O)c2c(=O)c3c(O)ccc(OCl)c3oc2c1 [Compound 6A63]	< 10 µM
Nc1c(Br)cc(O)c2c1C(=O)c1ccccc1C2=O [Compound 6A53]	< 10 µM

Which solubility reading was recorded for the compound O=C1c2c(O)ccc([N+](=O)[O-])c2C(=O)c2c([N+](=O)[O-])ccc(O)c21 [ARDP0006, reference compound] ?
> 10 µM

Same for Nc1ccc(O)c2ccccc12 [Compound 6A51]
> 10 µM

====

# tested.target: DEN2V NS2B-NS3pro (Dengue virus type 2)
# Sequence (Q91H74 entry or part of it, added parts left off): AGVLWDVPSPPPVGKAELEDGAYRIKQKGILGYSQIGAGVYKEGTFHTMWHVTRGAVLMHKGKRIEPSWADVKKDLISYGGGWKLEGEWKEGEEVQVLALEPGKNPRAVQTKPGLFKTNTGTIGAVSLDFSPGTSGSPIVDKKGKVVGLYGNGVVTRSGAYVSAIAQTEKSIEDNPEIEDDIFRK
# Sequence (Q91H74 entry or part of it partner, added parts left off): as the sequence (Q91H74 entry or part of it, added parts left off) above
# method.description: Steady-state kinetics of inhibitors of DEN2V NS2B-NS3pro (Boc-GRR-AMC substrate, Dynafit)
# Format: biochemical, Dengue 2 virus
# test.parameters: Table 1, DEN2V NS2B-NS3pro; read-out: Ki2
As shown below, each of these molecules has a reported pKi value.
// scale note: pKi = -log10(conc_M); give the bare number

Below, each entry is followed by its recorded pKi result.
molecule	tested.target	pKi
CC(=O)Oc1cc2c(cc1OC(C)=O)[C@@H]1c3ccc(OC(C)=O)c(OC(C)=O)c3OC[C@]1(OC(C)=O)C2 [MS5, Haematoxylin pentaacetate]	DEN2V NS2B-NS3pro (Dengue virus type 2)	5.30
CC[C@H](C)[C@H]1O[C@]2(CC[C@@H]1C)C[C@@H]1C[C@@H](C/C=C(\C)[C@@H](O[C@H]3C[C@H](OC)[C@@H](O[C@H]4C[C@H](OC)[C@@H](O)[C@H](C)O4)[C@H](C)O3)[C@@H](C)/C=C/C=C3\CO[C@@H]4[C@H](O)C(C)=C[C@@H](C(=O)O1)[C@]34O)O2 [MS21, Ivermectin, reference compound]	DEN2V NS2B-NS3pro (Dengue virus type 2)	4.46

Which pKi reading was recorded for the molecule Cc1cc(C(C)(C)CC(C)(C)C)ccc1OCCOCC[N+](C)(C)Cc1ccccc1.[Cl-] [MS22, Methylbenzethonium chloride, reference compound] ?
3.80

====

As shown below, each of these compounds has a reported Ki value.
# tested.target: Bovine pancreatic trypsin (Bos taurus)
# Construct: purchased Sigma Aldrich; host or cells: bovine pancreas
# Sequence (P00760 24-246): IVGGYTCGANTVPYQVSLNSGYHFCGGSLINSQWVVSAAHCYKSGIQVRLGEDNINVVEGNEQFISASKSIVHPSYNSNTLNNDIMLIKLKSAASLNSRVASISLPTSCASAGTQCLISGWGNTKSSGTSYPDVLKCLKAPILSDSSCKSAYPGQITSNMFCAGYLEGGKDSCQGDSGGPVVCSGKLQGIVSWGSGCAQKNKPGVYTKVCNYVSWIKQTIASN
# method.description: biochemical
# Assay type: biochemical
# test.parameters: Ki2 trypsin
Just the number please, in µM, no unit attached.

compound	tested.target	value.units	Ki
Nc1ccc(N)c2c1C(=O)c1c(N)ccc(N)c1C2=O	Bovine pancreatic trypsin (Bos taurus)	µM	167

In the following, a different compound is considered.
Reported Ki for Bovine pancreatic trypsin (Bos taurus), given O=C1c2c(O)ccc([N+](=O)[O-])c2C(=O)c2c([N+](=O)[O-])ccc(O)c21 [ARDP0006, reference compound] ?
13

====

# tested.target: DEN2V NS2B-NS3pro (Dengue virus type 2)
# method.description: Steady-state kinetics of inhibitors of DEN2V NS2B-NS3pro (Boc-GRR-AMC substrate, Dynafit)
# Format: biochemical, Dengue 2 virus
# test.parameters: Denpro Ki2
endpoint.label: Ki (µM)
Just the number please, in µM, no unit attached.

Below, each entry is followed by its recorded Ki result.
substance.smiles	recorded.value
O=[N+]([O-])c1cc(/N=N/c2ccc3cc(O)c(O)cc3c2)ccc1O	29
O=[N+]([O-])c1ccc(/C=N/c2ccc(O)c3ccccc23)c([N+](=O)[O-])c1	5
O=[N+]([O-])c1ccc(/N=N/c2ccc3cc(O)c(O)cc3c2)c(O)c1	5
O=[N+]([O-])c1ccc(/N=N/c2ccc(O)c3cc(O)ccc23)c([N+](=O)[O-])c1	4
O=[N+]([O-])c1cc(/N=N/c2ccc(O)c3cc(O)ccc23)ccc1O	85

In the following, a different compound is considered.
Reported Ki for DEN2V NS2B-NS3pro (Dengue virus type 2), given Oc1ccc2c(/N=N/c3ccc4c(c3)OCO4)ccc(O)c2c1 ?
62

====

# method.description: physchem
# test.parameters: pH 9, aqueous with cosolvent or surfactant or cyclodextrin, kinetic from dmso stock
endpoint.label: solubility

Below, each entry is followed by its recorded solubility result.
substance.smiles	solubility
CN/N=C1/c2ccccc2C(=O)c2c(O)ccc(O)c21	> 10 µM
O=C1c2cccc(O)c2C(=O)c2cccc(O)c21	< 10 µM
O=[N+]([O-])c1cc([N+](=O)[O-])c2ccccc2c1[O-].[Na+]	< 10 µM

In the following, a different compound is considered.
Which solubility reading was recorded for the compound O=[N+]([O-])c1ccc(OP(=O)([O-])Oc2ccc([N+](=O)[O-])cc2)cc1.[Na+] ?
< 10 µM

====

# tested.target: WNV NS2B-NS3pro (West Nile virus)
# Sequence (P06935 1502-1679 limits assumed): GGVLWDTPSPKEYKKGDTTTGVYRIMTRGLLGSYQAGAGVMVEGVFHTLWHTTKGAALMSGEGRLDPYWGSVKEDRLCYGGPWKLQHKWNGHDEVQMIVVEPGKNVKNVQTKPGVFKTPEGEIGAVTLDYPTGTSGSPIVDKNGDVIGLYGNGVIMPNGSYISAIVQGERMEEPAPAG
# Sequence (P06935 1424-1463 partner limits assumed): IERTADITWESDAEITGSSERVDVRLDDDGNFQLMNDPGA
# method.description: Steady-state kinetics of inhibitors of WNV NS2B-NS3pro
# Format: biochemical
# test.parameters: WNpro Ki1
As shown below, each of these compounds has a reported Ki value.
Just the number please, in µM, no unit attached.

compound	value.units	Ki
O=[N+]([O-])c1ccc(/N=N/c2ccc(O)c3cc(O)ccc23)c([N+](=O)[O-])c1 [Compound 298]	µM	4
O=[N+]([O-])c1ccc(/N=N/c2ccc3cc(O)c(O)cc3c2)c(O)c1 [Compound 300]	µM	3
O=[N+]([O-])c1ccc(/C=N/c2ccc(O)c3ccccc23)c([N+](=O)[O-])c1 [Compound 260]	µM	14

In the following, a different compound is considered.
Which Ki reading was recorded for the compound O=[N+]([O-])c1ccc(N=Nc2ccc(O)c3ccccc23)c([N+](=O)[O-])c1 [Compound 6A49] ?
34

====

# tested.target: WNV NS2B-NS3pro (West Nile virus)
# method.description: Steady-state kinetics of inhibitors of WNV NS2B-NS3pro
# Format: biochemical
# test.parameters: WNpro Ki2
pKi: −log10 of the molar value.
Parameter threshold = 5. Response is y when pKi meets or exceeds it, else n.

compound	tested.target	category.label
Oc1cc2ccc(/N=N/c3ccc4c(c3)OCO4)cc2cc1O [Compound 290]	WNV NS2B-NS3pro (West Nile virus)	y
O=[N+]([O-])c1ccc(/N=N/c2ccc(O)c3cc(O)ccc23)c([N+](=O)[O-])c1 [Compound 298]	WNV NS2B-NS3pro (West Nile virus)	y
O=[N+]([O-])c1ccc(/C=N/c2ccc(O)c3ccccc23)c([N+](=O)[O-])c1 [Compound 260]	WNV NS2B-NS3pro (West Nile virus)	y
Oc1ccc2c(/N=N/c3ccc4c(c3)OCO4)ccc(O)c2c1 [Compound 296]	WNV NS2B-NS3pro (West Nile virus)	n
O=[N+]([O-])c1cc(/N=N/c2ccc3cc(O)c(O)cc3c2)ccc1O [Compound 293]	WNV NS2B-NS3pro (West Nile virus)	n

Is the recorded value of pKi equal to or greater than 5 for this compound? O=[N+]([O-])c1cc(/N=N/c2ccc(O)c3cc(O)ccc23)ccc1O [Compound 297]
n

Same for O=[N+]([O-])c1ccc(/N=N/c2ccc3cc(O)c(O)cc3c2)c(O)c1 [Compound 300]
y

====

# tested.target: Bovine pancreatic trypsin (Bos taurus)
# Construct: purchased Sigma Aldrich; host or cells: bovine pancreas
# method.description: biochemical
# Type: biochemical
# test.parameters: read-out: Ki2 trypsin
endpoint.label: pKi
// scale note: pKi = -log10(conc_M); give the bare number

Which pKi reading was recorded for the compound O=C1c2ccc(O)cc2C(=O)c2c1ccc(O)c2O [Compound 6A47] ?
4.60

====

# tested.target: WNV NS2B-NS3pro (West Nile virus)
# method.description: Steady-state kinetics of inhibitors of WNV NS2B-NS3pro
# Assay type: biochemical
# test.parameters: Ki1 (from biochemical protease inihibition experiments) West Nile virus NS2B-NS
As shown below, each of these compounds has a reported pKi value.
// scale note: pKi = -log10(conc_M); give the bare number

compound	pKi
O=[N+]([O-])c1ccc(N=Nc2ccc(O)c3ccccc23)c([N+](=O)[O-])c1 [Compound 6A49]	4.47
CN(C)c1ccc2nc3ccc(=O)cc-3sc2c1 [Compound 9A4]	3.37
O=c1ccc2[n+]([O-])c3ccc(O)cc3oc-2c1 [Compound 9A3]	4.14

Which pKi reading was recorded for the compound Oc1ccc2cc3ccc(O)cc3c(O)c2c1 [Compound 6A60] ?
4.96

Same for O=C1c2ccc(O)c(O)c2C(=O)c2c(O)ccc(O)c21 [Compound 6A61]
4.51

Same for CCN(CC)c1ccc2nc3c4ccccc4c(=O)cc-3oc2c1 [Compound 9A6]
4.33

Same for O=C1c2c(O)cccc2Cc2cccc(O)c21 [Compound 6A45]
5.70

====

# tested.target: DEN2V NS2B-NS3pro (Dengue virus type 2)
# method.description: Steady-state kinetics of inhibitors of DEN2V NS2B-NS3pro (Boc-GRR-AMC substrate, Dynafit)
# Assay type: biochemical, Dengue 2 virus
# test.parameters: Ki1 (from biochemical protease inihibition experiments) Dengue 2 virus NS2B-NS3
endpoint.label: pKi
// scale note: pKi = -log10(conc_M); give the bare number

Below, each entry is followed by its recorded pKi result.
substance.smiles	endpoint.label	recorded.value
O=c1ccc2[n+]([O-])c3ccc(O)cc3oc-2c1	pKi	4.09
CN(C)c1ccc2nc3ccc(=O)cc-3sc2c1	pKi	3.44
O=C1c2ccc(O)c(O)c2C(=O)c2c(O)ccc(O)c21	pKi	4.14

Which pKi reading was recorded for the molecule Oc1ccc2cc3ccc(O)cc3c(O)c2c1 ?
5.15

Same for CCN(CC)c1ccc2nc3c4ccccc4c(=O)cc-3oc2c1
4.28
